Molecular target: hAT1R (Homo sapiens, UniProt P30556)
Sequence (P30556 whole entry): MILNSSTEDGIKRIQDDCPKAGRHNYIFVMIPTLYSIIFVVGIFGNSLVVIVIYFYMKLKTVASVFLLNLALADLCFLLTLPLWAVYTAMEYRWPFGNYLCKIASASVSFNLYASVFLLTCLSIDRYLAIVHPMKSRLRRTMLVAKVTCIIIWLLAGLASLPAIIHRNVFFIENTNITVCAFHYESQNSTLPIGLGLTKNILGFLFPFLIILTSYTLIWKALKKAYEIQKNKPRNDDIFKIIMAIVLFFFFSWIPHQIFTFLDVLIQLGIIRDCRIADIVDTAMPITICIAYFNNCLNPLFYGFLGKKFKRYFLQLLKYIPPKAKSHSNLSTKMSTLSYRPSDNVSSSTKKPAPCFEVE
Experiment: FLIPR calcium flux assay, Part II: antagonist activity against Angiotensin II
Type: cell-based
Settings: read-out: hAT1R Antagonist IC50 Ave
Method: AT1 receptor (AT1R) agonists increase intracellular flux of calcium ions. AT1R antagonists can reduce the agonist effect. […] Intracellular flux of calcium in response to agonist was measured through real-time measurement of fluorescence induced through the interaction of Ca2+ (released from intracellular stores) and calcium-sensitive dye. In Part I, cells were exposed to varying concentrations of test compounds and immediately measured for agonist activity (EC50 and Efficacy). […]
Starred links: 1 amine or outer side, 2 acyl side, 3 side chain; linkers in the order of their positions; H or OH if unused. Non-standard residues stand in square brackets, D forms with d. Residues, ends and D or L forms follow the SMILES beside them. X1 = O=C(CN(C[C@H](O)[C@@H](O)[C@H](O)[C@H](O)CO)[*:1])[*:2]; d1Nal = N[C@H](Cc1cccc2ccccc12)C(=O)O; Chg = N[C@H](C(=O)O)C1CCCCC1
property-name: pIC50
Please note pIC50 is a logarithmic value: minus log10 of concentration in mol/L. Answer with that number alone.

(Q) Write down the reported pIC50 of CC(C)[C@H](NC(=O)[C@H](CCCNC(=N)N)NC(=O)CNC[C@H](O)[C@@H](O)[C@H](O)[C@H](O)CO)C(=O)N[C@@H](Cc1ccc(O)cc1)C(=O)N[C@H](C(=O)N[C@@H](Cc1c[nH]cn1)C(=O)N1CCC[C@H]1C(=O)N[C@H](Cc1cccc2ccccc12)C(=O)O)C1CCCCC1 [Compound 40, Glac-Arg-Val-Tyr-Chg-His-Pro-(D-1Nal)-OH] (H-[X1]RVY[Chg]HP[d1Nal]-OH) , test system: hAT1R (Homo sapiens, UniProt P30556).
(A) 7.66

(Q) Identify the measured pIC50 of CNCC(=O)N[C@@H](CCCNC(=N)N)C(=O)N[C@H](C(=O)N[C@@H](Cc1ccc(O)cc1)C(=O)N[C@H](C(=O)N[C@@H](Cc1c[nH]cn1)C(=O)N1CCC[C@H]1C(=O)N[C@H](Cc1ccccc1Cl)C(=O)O)[C@@H](C)OC)C(C)C for hAT1R (Homo sapiens, UniProt P30556).
(A) 7.97

(Q) Please state recorded pIC50 (tested on hAT1R (Homo sapiens, UniProt P30556)) of CC(C)[C@H](NC(=O)[C@H](CCCNC(=N)N)NC(=O)CNC[C@H](O)[C@@H](O)[C@H](O)[C@H](O)CO)C(=O)N[C@@H](Cc1ccc(O)cc1)C(=O)N[C@H](C(=O)N[C@@H](Cc1c[nH]cn1)C(=O)N1CCC[C@H]1C(=O)N[C@H](Cc1ccccc1-c1ccccc1)C(=O)O)C(C)C [Compound 39] (HELM PEPTIDE1{[O=C(CNC[C@H](O)[C@@H](O)[C@H](O)[C@H](O)CO)[*:2]].R.V.Y.V.H.P.[O=C(O)[C@@H](Cc1ccccc1-c1ccccc1)N[*:1]]}$$$$V2.0)
(A) 7.57

Values were extracted from patent US10344054B2.
